- Test system: Calu-3
- assayMethodText: cell viability relative to DMSO; higher = less toxic
- recordedConditions: 72 h; 10 nM
Listed here: items and their measured cell viability.

compound	cell viability (%)
CCN1CCC(n2cc(CNc3cc(Cl)c4ncc(C#N)c(Nc5ccc(F)c(Cl)c5)c4c3)nn2)CC1	92
CN1[C@@H]2CC[C@H]1C[C@@H](OC(c1ccc(F)cc1)c1ccc(F)cc1)C2	106
O[C@@H]1CCCC[C@H]1N1CCC(c2ccccc2)CC1 (racemic)	106
CCCCCCCCCCCCCC(=O)[O-].CCCCCCCCCCCCCC(=O)[O-].N[C@@H]1CCCC[C@H]1N.[Pt+2]	101
CN1CCN(CCCN2c3ccccc3Sc3ccc(S(=O)(=O)N(C)C)cc32)CC1	93.5
c1ccc2c(c1)CCCc1cc(NCCN3CCOCC3)nnc1-2	105
CC[C@@H]1C(=O)N(C)c2cnc(Nc3ccc(C(=O)NC4CCN(C)CC4)cc3OC)nc2N1C1CCCC1	97.3
O=C(O)P(=O)(O)O	105

Hey, just so you know, these numbers are from the supplement of paper PMC13380429.
